molecular target: T1, IFN-αWA (human, UniProt P05015 24-189); experiment: ProteOn SPR, cell supernatant;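 further: each binding measurement used just a single antigen concentration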
T1 construct: Recombinant, HEK293; also called IFN-α16
pKd: −log10 of the molar value.

| BINDER | pKd |
| --- | --- |
| IFWM3385 (antibody, IgG1, V domains shown, mAb; IgG1/kappa said of the parent and of selected mAbs; also called IFWB3120) VH: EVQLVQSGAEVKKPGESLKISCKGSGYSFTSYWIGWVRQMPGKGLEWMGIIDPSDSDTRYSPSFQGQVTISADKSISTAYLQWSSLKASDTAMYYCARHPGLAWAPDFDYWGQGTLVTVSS VL: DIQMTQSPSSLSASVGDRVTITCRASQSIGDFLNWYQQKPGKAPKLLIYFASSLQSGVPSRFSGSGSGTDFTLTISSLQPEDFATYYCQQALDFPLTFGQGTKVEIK | 10.28 |
| IFWM3394 (antibody, IgG1, V domains shown, mAb; IgG1/kappa said of the parent and of selected mAbs; also called IFWB3129) VH: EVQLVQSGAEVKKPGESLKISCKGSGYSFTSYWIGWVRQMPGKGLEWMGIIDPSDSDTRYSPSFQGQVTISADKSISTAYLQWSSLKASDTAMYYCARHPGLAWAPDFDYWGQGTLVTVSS VL: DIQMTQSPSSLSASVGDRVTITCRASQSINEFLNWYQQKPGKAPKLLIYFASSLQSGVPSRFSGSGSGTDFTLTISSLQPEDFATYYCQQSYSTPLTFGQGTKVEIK | 10.31 |
| IFWM3380 (antibody, IgG1, V domains shown, mAb; IgG1/kappa said of the parent and of selected mAbs; also called IFWB3115) VH: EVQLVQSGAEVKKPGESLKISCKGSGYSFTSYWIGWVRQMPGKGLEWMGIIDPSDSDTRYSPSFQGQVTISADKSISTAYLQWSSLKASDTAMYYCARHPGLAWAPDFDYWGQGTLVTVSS VL: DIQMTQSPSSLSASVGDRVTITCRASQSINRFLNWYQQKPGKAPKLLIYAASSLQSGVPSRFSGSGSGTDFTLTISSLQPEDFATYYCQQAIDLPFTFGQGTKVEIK | 10.23 |
| IFWM3370 (antibody, IgG1, V domains shown, mAb; IgG1/kappa said of the parent and of selected mAbs; also called IFWB3105) VH: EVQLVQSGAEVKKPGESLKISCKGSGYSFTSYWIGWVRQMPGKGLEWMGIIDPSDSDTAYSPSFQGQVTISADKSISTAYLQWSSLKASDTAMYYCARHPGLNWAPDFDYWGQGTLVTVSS VL: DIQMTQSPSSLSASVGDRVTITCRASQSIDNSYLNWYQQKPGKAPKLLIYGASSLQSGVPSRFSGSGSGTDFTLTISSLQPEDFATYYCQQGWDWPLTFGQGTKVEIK | 10.39 |
| IFWM3401 (antibody, IgG1, V domains shown, mAb; IgG1/kappa said of the parent and of selected mAbs; also called IFWB3136) VH: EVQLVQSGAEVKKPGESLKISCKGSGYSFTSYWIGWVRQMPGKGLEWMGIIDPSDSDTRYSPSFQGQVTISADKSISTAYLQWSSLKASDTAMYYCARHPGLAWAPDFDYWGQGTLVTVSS VL: DIQMTQSPSSLSASVGDRVTITCRASQSITNHLNWYQQKPGKAPKLLIYFASSLQSGVPSRFSGSGSGTDFTLTISSLQPEDFATYYCQQAHNFPLTFGQGTKVEIK | 10.12 |

Cited source: patent US20150368338A1
